Biological target: CYP2C9 (Homo sapiens)
Sequence (P11712 whole entry): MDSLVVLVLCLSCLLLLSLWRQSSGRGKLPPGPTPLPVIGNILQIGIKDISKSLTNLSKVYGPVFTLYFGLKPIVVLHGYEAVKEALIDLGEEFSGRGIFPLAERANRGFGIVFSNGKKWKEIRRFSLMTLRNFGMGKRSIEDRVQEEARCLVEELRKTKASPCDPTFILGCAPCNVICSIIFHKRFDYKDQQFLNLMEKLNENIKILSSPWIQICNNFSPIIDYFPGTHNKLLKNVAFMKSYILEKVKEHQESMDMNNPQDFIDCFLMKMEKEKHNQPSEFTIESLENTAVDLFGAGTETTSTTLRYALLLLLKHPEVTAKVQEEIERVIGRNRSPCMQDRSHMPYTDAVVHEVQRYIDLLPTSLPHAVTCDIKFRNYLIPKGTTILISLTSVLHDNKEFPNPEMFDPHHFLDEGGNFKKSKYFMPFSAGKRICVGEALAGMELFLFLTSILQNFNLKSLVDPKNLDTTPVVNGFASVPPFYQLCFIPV
Test: CYP inhibition
Format: in vitro ADME
Details: read-out: Inhibition of human CYP 2C9
measurement-kind: inhibition at 10 µM (%)
# value in %; strip the unit string

get_value(item= Cc1ccccc1COc1ccc(-c2ccnn2-c2ccc(Cl)cc2)cc1 [compound 85] , readout=inhibition at 10 µM) returns 7.3

* * *

Below is a list of entries, each paired with its recorded melting point value.

The compound `Cc1onc(-c2ccc(OCc3ccccc3C(F)(F)F)cc2)c1-c1ccc(Cl)cc1` showed melting point equal to 132.8 to 134.4 °C

* * *

compounds and their reported IC50
Tested on: SNU475
Test: SRB cytotoxicity assay
Type: cell-based
Settings: Homo sapiens, SNU-475, 72 h treatment
A bare number is not enough; add the unit after it.

// field: IC50; key: Cc1ccccc1COc1ccc(-c2ccnn2-c2ccc(Cl)cc2)cc1 [compound 85] ; value = 1500 nM

Now for the compound whose IC50 we want.
For Cc1ccccc1COc1ccc(-c2noc(C)c2-c2ccc(Cl)cc2)cc1 [compound 11] the compound record lists IC50 as 1700 nM
